Test: Parent chemical in rat plasma, 90-day study
Format: in vivo
Details: Sprague-Dawley, rat, plasma, oral; male, Day 91, 1.9 mg/kg-day
Description: Subchronic (90-day) studies were performed in accordance with current U.S. EPA’s Toxic Substances Control Act Good Laboratory Practice (GLP) Standards, with the following two general exceptions to the GLP guidelines: Analysis of the dose formulations was conducted according to RTI-approved Standard Operating Procedures, and corn oil (the vehicle) was not characterized (certificate of analysis from the vendor is available in the appendices to the final reports). […]
quantityKind: concentration at 91 day (ng/mL)
Answer format: numeric, ng/mL implied, no suffix.

Qu. What does the data say about its concentration at 91 day? Entry: O=C(O)C(F)(Cl)C(F)(F)F (stereo not shown) [CTFPA]
Ans. 12600
